Tested on: E. coli TESEC Mtb Alr
Assay: growth (OD600 after 10 h); higher = more growth (less inhibition)
Settings: arabinose 1000000 nM; compound 0.1 mM; raw OD600 reference: median of DMSO wells 0.193, cell-free background 0.041
# growth per record follows
# answer = number (no unit)

Solved entries:
NCCCNCCSP(=O)(O)O [Amifostine]: 0.196
CN1C(=O)CCS(=O)(=O)C1c1ccc(Cl)cc1 (stereo not drawn) [Chlormezanone]: 0.188

[Q] Look up growth: C[C@]12CC[C@H]3[C@@H](CCC4=CC(=O)CC[C@@H]43)[C@@H]1CC[C@@H]2O [Nandrolone]
[A] 0.0814

* * *

# growth per record follows
Test system: E. coli TESEC Mtb Alr
Experiment: growth (OD600 after 10 h); higher = more growth (less inhibition)
Conditions: arabinose 100000 nM; compound 0.1 mM; raw OD600 reference: median of DMSO wells 0.201, cell-free background 0.041
Structures can show the parent of a compound that is named as a salt.
# answer = number (no unit)

COc1ccc2c(c1)[C@]13CCCC[C@@H]1[C@H](C2)N(C)CC3 [Dextromethorphan hydrobromide monohydrate]: 0.2
C[C@H](N)[C@H](O)c1ccc(O)c(O)c1 [Levonordefrin]: 0.206
N[C@@H]1C[C@H]1c1ccccc1 [Tranylcypromine hydrochloride]: 0.203

[Q] Look up growth: CNC(=O)Oc1ccc2c(c1)[C@]1(C)CCN(C)[C@@H]1N2C [Eserine hemisulfate salt]
[A] 0.203

* * *

Tested on: E. coli TESEC Mtb Asd
Assay: growth (OD600 after 10 h); higher = more growth (less inhibition)
Settings: arabinose induction (level): Low; compound 0.1 mM; raw OD600 reference: median of DMSO wells 0.417, cell-free background 0.041
Structures can show the parent of a compound that is named as a salt.
# growth per record follows
# answer = number (no unit)

Solved entries:
CCC1(C)CC(=O)NC(=O)C1 [Bemegride]: 0.46
CN1[C@@H]2C[C@@H](OC(=O)[C@H](CO)c3ccccc3)C[C@H]1[C@@H]1O[C@@H]12 [Scopolamine hydrochloride]: 0.453
C#C[C@]1(O)CC[C@H]2[C@@H]3CCC4=CC(=O)CC[C@]4(C)[C@H]3CC[C@@]21C: 0.41
CN1C[C@H](C(=O)N[C@]2(C)O[C@@]3(O)[C@@H]4CCCN4C(=O)[C@H](Cc4ccccc4)N3C2=O)C[C@@H]2c3cccc4[nH]cc(c34)C[C@H]21 [Dihydroergotamine tartrate]: 0.123
CC(=O)O[C@H]1CC[C@@]2(C)C(=CC[C@@H]3[C@@H]2CC[C@]2(C)C(=O)CC[C@@H]32)C1 [Dehydroisoandosterone 3-acetate]: 0.391

[Q] Look up growth: c1ccc2c(c1)Nc1ccccc1S2
[A] 0.177

[Q] Request: O=C1CC[C@@]2(O)[C@H]3Cc4ccc(O)c5c4[C@@]2(CCN3CC2CC2)[C@H]1O5 [Naltrexone hydrochloride dihydrate]
[A] 0.443

[Q] Request: COP(=O)(OC)C(O)C(Cl)(Cl)Cl (stereo not given)
[A] 0.363

[Q] Request: C1CCc2nnnn2CC1
[A] 0.431

[Q] Request: C=C1C[C@@H]2[C@H](CC[C@]3(C)C(=O)CC[C@@H]23)[C@@]2(C)C=CC(=O)C=C12
[A] 0.147
